// provenance: PubChem BioAssay (NCI)

Tested on: SK-MEL-28 melanoma
Assay: NCI tumour cell line growth inhibition, 48 h; in the data active = GI50 below about 0.43 µM; inactive = the rest
Pick one: active, inactive

| compound | target.system | group.label |
| --- | --- | --- |
| Clc1nccc2c(-c3csc(-c4c[nH]c5ccc(Br)cc45)n3)c[nH]c12 | SK-MEL-28 melanoma | inactive |

**Query** Short answer needed: outcome of this test for CC1CC2C3CCC4=CC(=O)C=CC4(C)C3(F)C(O)CC2(C)C1(O)C(=O)COP(=O)(O)O (stereo not given) ?
**Result** inactive

**Query** Short answer needed: outcome of this test for CO[C@H]1C[C@@H]2CC[C@@H](C)[C@@](O)(O2)C(=O)C(=O)N2CCCC[C@H]2C(=O)O[C@H]([C@H](C)C[C@@H]2CC[C@@H](OC(=O)C(C)(CO)CO)[C@H](OC)C2)CC(=O)[C@H](C)/C=C(\C)[C@@H](O)[C@@H](OC)C(=O)[C@H](C)C[C@H](C)\C=C/C=C/C=C/1C ?
**Result** active

**Query** Short answer needed: outcome of this test for O=C(Nc1ccc(Oc2ccc(F)cc2)cc1)[C@@H]1C[C@@H](Cc2ccc(F)cc2)CN1C(=O)Cn1ccnn1 ?
**Result** inactive

**Query** Short answer needed: outcome of this test for COC1(CC[C@@H](C)COC2OC(CO)C(O)C(O)C2O)O[C@H]2C[C@H]3[C@@H]4CC=C5C[C@@H](OC6OC(CO)C(OC7OC(C)C(O)C(O)C7O)C(O)C6OC6OC(C)C(O)C(O)C6O)CC[C@]5(C)[C@H]4CC[C@]3(C)[C@H]2[C@@H]1C (stereo not given in full) ?
**Result** inactive

###

System: SF-539 CNS
Assay: NCI tumour cell line growth inhibition, 48 h
result.type: TGI

Example compounds with recorded TGI:
| compound | target.system | TGI |
| --- | --- | --- |
| O=C1c2ccccc2C(=O)c2cc3c(cc21)CS(=O)C3 | SF-539 CNS | > 100 µM |
| O=c1[nH]nc(Cc2ccccc2)n1/N=C/c1cccs1 | SF-539 CNS | > 100 µM |
| Cc1nc(N)nc(N)c1CCCCc1ccc(N)cc1 | SF-539 CNS | 21.7 µM |
| O=C(CNc1ccccn1)Nn1cnc2ccc(S(=O)(=O)Nc3ccccn3)cc2c1=O | SF-539 CNS | > 100 µM |
| COc1ccc(/C=c2\c(=O)[nH]c3nc4ccccc4c(=O)n23)cc1 | SF-539 CNS | > 100 µM |
| O=C1CC(c2c[nH]c3ccc(F)cc23)C(=O)N1 (stereo unspecified) | SF-539 CNS | > 100 µM |
| Oc1ccc(Br)cc1C=Nc1cccc(C(F)(F)F)c1 | SF-539 CNS | 99.1 µM |
| COc1cc2c(c(OC)c1OC)-c1ccc(NN(C(=O)c3ccccc3)C(=O)c3ccccc3)c(=O)cc1[C@@H](NC(C)=O)CC2 (tested in a mixture with another compound) | SF-539 CNS | 10.5 µM |
| Cn1c(CBr)nc2c1C(=O)c1nc(CBr)[nH]c(=O)c1C2=O | SF-539 CNS | > 100 µM |
| S=c1sc2c(s1)SC(c1ccccc1)CS2 (stereo unspecified) | SF-539 CNS | > 100 µM |

Reported TGI for C=C1CC(C)(COc2ccc3c(C)c(Cl)c(=O)oc3c2)OC1=O (stereo unspecified) was 15.6 µM

Reported TGI for CCC(NC(C)c1ccccc1)C(=O)c1ccc(OCc2ccccc2)c(OCc2ccccc2)c1 (stereo unspecified) was > 100 µM

Reported TGI for CC(C)C1CNC(=O)C2(C=NC(C(C)C)CNC(=O)C3(C=N1)CCCO3)CCCO2 (stereo unspecified) was > 10 µM
